System: NCI-H226 lung
Experiment: NCI tumour cell line growth inhibition, 48 h
Where a SMILES comes first, the peptide text is derived from it. Square brackets hold non-standard residues; d marks the D form. Peptide text beside a SMILES is read from it. [ ]: non-standard residue; d: D form. * marks the point of attachment. Boc = CC(C)(C)OC(=O)*; OBn = c1ccc(CO*)cc1
Could you please report measured TGI for the items listed next?

Please review the entries below; each comes with its answer.
O=C1CC[C@H](NC(=O)Cc2ccccc2)C(=O)N1: > 1250 µM
CC(C)C(=O)OCN(C)c1nc(N(C)COC(=O)C(C)C)nc(N(C)COC(=O)C(C)C)n1: > 100 µM
COc1ccc2c(c1)/C(=N/OC(C)=O)c1c-2c(Nc2cccc(/C(C)=N/OC(C)=O)c2)nc2ccccc12: > 100 µM
NC(N)=NCCC[C@H]1NC(=O)[C@@H](CCC(=O)O)NC(=O)[C@@H](CC(=O)O)NC(=O)[C@@H](CCC(=O)O)NC(=O)[C@H](Cc2c[nH]c3ccccc23)NC1=O (cyclo(W[dE][dD][dE][dR])): > 7.5 µM
Clc1ccc(COc2ccccc2/C=N/c2c(-c3ccco3)nc3ccccn23)c(Cl)c1: > 100 µM
C=CC(=O)C#CC#CC/C=C\CCCCCCC: > 20.6 µM
COC1=C(C)C(=O)C2=C(C1=O)[C@@H]1[C@@H]3Cc4c(OC(=O)CO)c(C)c(OC)c(O)c4[C@H](CNC(=O)C(C)=O)N3[C@@H](C#N)[C@H](C2)N1C: 0.834 µM
Cc1ncc([N+](=O)[O-])n1CCn1ccnc1[N+](=O)[O-]: > 100 µM

For every item in the list below, what is its measured TGI?
1. CCO/C(O)=C(/C(=N)N1CCOCC1)C(=O)Nc1ccc(Cl)cc1
2. CCCCCC(=O)Nc1n[nH]nc1C#N
3. Nc1nccc2c1ncn2[C@H]1C[C@H](O)[C@@H](CO)O1
4. CCOC(=O)CC[C@H](NC(=O)c1[nH]cnc1/N=N/N(C)C)C(=O)OCC

Result:
["> 100 µM", "> 100 µM", "> 100 µM", "> 100 µM"]

For every item in the list below, what is its measured TGI?
1. CN(CCCNCc1ccccn1)Cc1ccccc1O
2. O=C(Nc1ncc(Cc2ccccc2)s1)c1sc2ccccc2c1Cl
3. Cc1ccc(C(=O)N/N=C(\N=Nc2cccc([N+](=O)[O-])c2)c2ccc(N(C)C)cc2)cc1
4. COc1cc(-c2nccn2-c2ccc3ccccc3c2)cc(OC)c1OC
5. O=C(O)c1ccc(C(=O)Nc2cccc3ccccc23)c(C(=O)O)c1
6. C[C@@H](NC(=O)CNC(=O)OC(C)(C)C)C(=O)N[C@@H](Cc1ccccc1)C(=O)OCc1ccccc1 (Boc-Gly-[dA]-Phe-OBn)

Result:
97.8 µM
> 46.6 µM
> 100 µM
20.3 µM
> 100 µM
> 100 µM

For every item in the list below, what is its measured TGI?
1. O=c1cc(-c2ccccc2)nc(-n2[nH]c3c(c2=O)CCCC3)[nH]1
2. Nc1cccc2nnccc12
3. CC1CCC2C(C)(C)CC3(C)CCC1C23O (stereo unspecified)

Result:
["> 100 µM", "> 100 µM", "29.9 µM"]

The values you see were collected from PubChem BioAssay (NCI).
